test system: HepG2 cells; experiment: In-vitro cytotoxicity MTT assay on HepG2 cell line; format: cell-based, human; conditions: 125 μg/ml, third day
observed_property: cell survival rate of HepG2 (%)
Give your result in % as a bare value.

Lab note: measured cell survival rate of HepG2 of Cc1ccc(NC(=O)c2ccc(OC(F)(F)F)cc2)cc1 [Compound 16, N-p-tolyl-4-(trifluoromethoxy)benzamide] was 38

cell survival rate of HepG2 for Cc1ccc(NC(=O)c2cc([N+](=O)[O-])cc([N+](=O)[O-])c2)cc1 [Compound 6, 3,5-dinitro-N-p-tolylbenzamide] is 36

Notebook: Cc1ccc(NC(=O)c2c(F)c(F)c(F)c(F)c2F)cc1 [Compound 20, 2,3,4,5,6-pentafluoro-N-p-tolylbenzamide] , cell survival rate of HepG2 read as 32

GET /value?item= Cc1ccc(NC(=O)c2cccc3ccccc23)cc1 [Compound 10, N-p-tolyl-1-naphthamide] &field=cell survival rate of HepG2 returns 40
